Tested on: PARG in HeLa cell line
assayExplanation: PARG cell assay (PAR chain immunofluorescence after MMS)
Format: cell-based
conditionLabel: Homo sapiens; HeLa cells, MMS 50 μg/mL; read-out: PARG Cell IC50 Geomean
In this section we review reported pIC50 values for a set of compounds.
Interpret pIC50 as the negative base-10 log of the concentration measured in mol/L.

# input Please tell me the measured pIC50 for Cn1cc(Cn2c(=O)c3cc(S(=O)(=O)NC4(C)CC4)ccc3n(CC3CCOCC3)c2=O)cn1 ; system: PARG in HeLa cell line.
# output 7.01

---

targetSystem: Human Full Length PARG (Homo sapiens (Human), UniProt Q86W56)
Sequence (Q86W56 whole entry): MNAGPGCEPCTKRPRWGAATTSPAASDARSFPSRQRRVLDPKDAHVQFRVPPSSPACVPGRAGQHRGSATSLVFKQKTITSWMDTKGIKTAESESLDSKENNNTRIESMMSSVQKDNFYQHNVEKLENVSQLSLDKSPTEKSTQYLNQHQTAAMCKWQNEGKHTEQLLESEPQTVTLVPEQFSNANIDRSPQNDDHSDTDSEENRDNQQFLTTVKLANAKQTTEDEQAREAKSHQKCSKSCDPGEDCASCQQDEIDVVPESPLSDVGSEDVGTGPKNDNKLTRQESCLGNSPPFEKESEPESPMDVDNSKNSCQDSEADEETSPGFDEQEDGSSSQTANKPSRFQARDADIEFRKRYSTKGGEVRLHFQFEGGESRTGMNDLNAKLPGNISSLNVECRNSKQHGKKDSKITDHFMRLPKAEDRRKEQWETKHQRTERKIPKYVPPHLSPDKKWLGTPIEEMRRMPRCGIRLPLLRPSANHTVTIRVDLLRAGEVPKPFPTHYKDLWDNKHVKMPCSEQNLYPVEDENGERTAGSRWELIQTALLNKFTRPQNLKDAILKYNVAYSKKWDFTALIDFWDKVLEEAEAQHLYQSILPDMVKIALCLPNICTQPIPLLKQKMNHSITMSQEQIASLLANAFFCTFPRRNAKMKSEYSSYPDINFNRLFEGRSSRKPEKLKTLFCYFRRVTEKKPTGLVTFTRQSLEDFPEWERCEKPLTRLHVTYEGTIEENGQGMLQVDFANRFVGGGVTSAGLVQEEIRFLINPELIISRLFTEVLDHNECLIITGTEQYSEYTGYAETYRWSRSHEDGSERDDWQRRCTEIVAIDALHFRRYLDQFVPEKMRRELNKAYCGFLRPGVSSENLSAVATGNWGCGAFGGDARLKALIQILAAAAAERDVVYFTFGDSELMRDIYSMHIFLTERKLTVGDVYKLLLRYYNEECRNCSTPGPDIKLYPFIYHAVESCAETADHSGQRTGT
assayExplanation: PARG enzyme assay (TR-FRET)
Format: biochemical
conditionLabel: read-out: PARG Biochem IC50
outcomeMeasure: log10(IC50) (log10 of the value in nM)
Scale: log10; quantity: IC50; unit before log: nM

Below, each entry is followed by its recorded log10(IC50) result.
compound | targetSystem | log10(IC50)
Cn1cc(Cn2c(=O)c3cc(S(=O)(=O)NC4(CF)CC4)ccc3n(Cc3ccc(F)cc3)c2=O)cn1 [Example 419] | Human Full Length PARG (Homo sapiens (Human), UniProt Q86W56) | 2.03
Cn1cc(Cn2c(=O)c3cc(S(=O)(=O)NC4(CF)CC4)ccc3n(Cc3c[nH]cn3)c2=O)cn1 [Example 575] | Human Full Length PARG (Homo sapiens (Human), UniProt Q86W56) | 1.94
Cn1cc(Cn2c(=O)c3cc(S(=O)(=O)NC4(CF)CC4)ccc3n(Cc3ccncc3)c2=O)cn1 [Example 610] | Human Full Length PARG (Homo sapiens (Human), UniProt Q86W56) | 2.05
Cc1cc(Cn2c(=O)c3cc(S(=O)(=O)NC4(C)CC4)ccc3n(CCCC(C)C)c2=O)on1 [Example 474] | Human Full Length PARG (Homo sapiens (Human), UniProt Q86W56) | 2.52
Cc1cc(Cn2c(=O)c3cc(S(=O)(=O)NC4(C)CC4)ccc3n(CC(C)(C)F)c2=O)on1 [Example 453] | Human Full Length PARG (Homo sapiens (Human), UniProt Q86W56) | 2.54

# input Output measured log10(IC50) for this item: Cn1c(=O)n(Cc2cncs2)c(=O)c2cc(S(=O)(=O)NC3(CF)CC3)ccc21 [Example 534]
# output 2.76

# input Please report log10(IC50) for the following compound: Cc1ncsc1Cn1c(=O)n(Cc2cnn(C)c2)c(=O)c2cc(S(=O)(=O)NC3(CF)CC3)ccc21 [Example 572]
# output 0.85

---

targetSystem: Human Full Length PARG (Homo sapiens (Human), UniProt Q86W56)
assayExplanation: PARG enzyme assay (TR-FRET)
Type: biochemical
conditionLabel: read-out: PARG Biochem IC50 Geomean
outcomeMeasure: IC50 (nM)
Report as a plain number; the unit nM is understood.

# input State its IC50 for this compound: Cn1cc(Cn2c(=O)c3cc(S(=O)(=O)NC4(C)CC4)ccc3n(Cc3ccc(F)cc3)c2=O)cn1
# output 49

# input Entry Cn1c(=O)c2cc(S(=O)(=O)NC3(C)CC3)ccc2n(Cc2ccccn2)c1=O needs its IC50 filled in; supply it.
# output 5770

# input Find the measured IC50 of Cn1c(=O)c2cc(S(=O)(=O)NC3(C)CC3)ccc2n(Cc2cscn2)c1=O and report it.
# output 855

# input Tell me measured IC50 for Cn1cc(Cn2c(=O)c3cc(S(=O)(=O)NC4(C#N)CC4)ccc3n(CC3(C)COC3)c2=O)cn1 please.
# output 124

---

As shown below, each of these compounds has a reported IC50 value.
targetSystem: Human Full Length PARG (Homo sapiens (Human))
assayExplanation: PARG enzyme assay (TR-FRET)
Format: biochemical
conditionLabel: read-out: PARG Biochem IC50 Geomean
Entry rule: numbers only, all in µM.

Examples from the recorded data:
compound | units | IC50
Cn1cc(Cn2c(=O)c3cc(S(=O)(=O)NC4(C)CC4)ccc3n(CC3CCCCO3)c2=O)cn1 (stereo not shown) | µM | 0.103
Cc1cc(Cn2c(=O)c3cc(S(=O)(=O)NC4(C)CC4)ccc3n(CC3CCOC3)c2=O)on1 (stereo not shown) | µM | 0.111
Cn1c(=O)c2cc(S(=O)(=O)NC3(C)CC3)ccc2n(Cc2c(Cl)cccc2Cl)c1=O | µM | 2.1
CCc1nn(Cc2cc(C)no2)c(=O)c2cc(S(=O)(=O)NC3(C)CC3)ccc12 | µM | 0.408
CN(C)CCn1cc(Cn2c(=O)c3cc(S(=O)(=O)NC4(C)CC4)ccc3n(C)c2=O)cn1 | µM | 2.48

# input Please report the measured IC50 for CNC(=O)c1nn(Cc2cc(C)no2)c(=O)c2cc(S(=O)(=O)NC3(C)CC3)ccc12
# output 0.8

# input Supply IC50 value. Item: Cc1cc(Cn2nc(C(=O)NCC3CCN(C)CC3)c3ccc(S(=O)(=O)NC4(C)CC4)cc3c2=O)on1
# output 0.781

# input Note IC50 for the compound shown: Cc1cc(Cn2nc(CC3CCCCC3)c3ccc(S(=O)(=O)NC4(C)CC4)cc3c2=O)on1
# output 1.37

# input Quickly give me recorded IC50 for Cc1cc(Cn2c(=O)n(Cc3cnn(C)c3)c(=O)c3cc(S(=O)(=O)NC4(C#N)CC4)ccc32)n(C)n1
# output 0.061

# input Complete the entry with IC50 for CC(C)Cc1nc2ccc(S(=O)(=O)NC3(C)CC3)cc2c(=O)n1C
# output 1.84

# input State, in one line, measured IC50 of Cc1cc(Cn2c(=O)c3cc(S(=O)(=O)NC4(C)CC4)ccc3n(CCN3CCN(C)CC3)c2=O)on1
# output 0.511

# input Using known records, supply IC50 for Cc1cc(Cn2c(=O)c3cc(S(=O)(=O)NC4(C)CC4)ccc3n(CCN3CCCC3)c2=O)on1
# output 0.521

# input Give the reported IC50 for this compound. Cc1nc(C)c(Cn2c(=O)n(C)c(=O)c3cc(S(=O)(=O)NC4(C)CC4)ccc32)s1
# output 0.184

# input Retrieve IC50 measured for C#CCn1c(=O)n(Cc2cnn(C)c2)c(=O)c2cc(S(=O)(=O)NC3(C)CC3)ccc21 and print it.
# output 0.052

---

Test system: PARG in HeLa cell line
assayExplanation: PARG cell assay (PAR chain immunofluorescence after MMS)
Assay type: cell-based
conditionLabel: HeLa cells, MMS treatment; read-out: PARG Cell IC50
pIC50: −log10 of the molar value.
Use class 1 when the recorded pIC50 is no lower than 6; use class 0 when it is lower.

Field: example entries. Status: answers known.
smilesCode | group
Cn1cc(Cn2c(=O)c3cc(S(=O)(=O)NC4(CF)CC4)ccc3n(Cc3cscn3)c2=O)cn1 | class 1
Cc1cc(Cn2c(=O)c3cc(S(=O)(=O)NC4(C)CC4)ccc3n(Cc3cnn(C(C)C)c3)c2=O)on1 | class 1
Cc1nnc(Cn2c(=O)c3cc(S(=O)(=O)NC4(CF)CC4)ccc3n(Cc3cnn(C)c3)c2=O)s1 | class 1

# input Does the reported pIC50 for Cc1cc(Cn2c(=O)c3cc(S(=O)(=O)NC4(C)CC4)ccc3n(CC3CCC(=O)CC3)c2=O)on1 fall at or above the 6 mark?
# output class 1

# input Dear colleague, could you confirm whether Cc1cc(Cn2c(=O)c3cc(S(=O)(=O)NC4(C)CC4)ccc3n(CC(=O)N3CCC3)c2=O)on1 has pIC50 at or above 6?
# output class 0

# input Test whether the compound COC(=O)c1cc(S(=O)(=O)NC2(C)CC2)cc2c(=O)n(Cc3cnn(C)c3)c(=O)[nH]c12 records pIC50 of 6 or higher.
# output class 1

# input Test whether the compound C#CC1(NS(=O)(=O)c2ccc3c(c2)c(=O)n(Cc2cnn(C)c2)c(=O)n3CC2CC2)CC1 records pIC50 of 6 or higher.
# output class 1

# input Is it the case that CCn1c(=O)n(Cc2cc(C)no2)c(=O)c2cc(S(=O)(=O)NC3(CF)CC3)ccc21 has pIC50 reaching or exceeding 6?
# output class 1

---

IC50 listing for selected molecules.
targetSystem: Human Full Length PARG (Homo sapiens (Human), UniProt Q86W56)
assayExplanation: PARG enzyme assay (TR-FRET)
Type: biochemical
conditionLabel: read-out: PARG Biochem IC50 Geomean
Respond with the bare value in µM.

# input Report value only: IC50, Human Full Length PARG (Homo sapiens (Human), UniProt Q86W56), CCn1c(=O)n(Cc2cc(C)no2)c(=O)c2cc(S(=O)(=O)NC3(C)CC3)ccc21
# output 0.329

# input Give Human Full Length PARG (Homo sapiens (Human), UniProt Q86W56) IC50 for the following molecule: Cc1nc(C)c(Cn2c(=O)n(C)c(=O)c3cc(S(=O)(=O)NC(C)(C)C)ccc32)s1
# output 1.39

# input Please indicate recorded IC50 of Cn1cc(Cn2c(=O)c3cc(S(=O)(=O)NC4(C)CC4)ccc3n(Cc3cnn(C)c3)c2=O)cn1 measured with Human Full Length PARG (Homo sapiens (Human), UniProt Q86W56).
# output 0.048

# input Name the recorded IC50 of Cn1c(=O)c2cc(S(=O)(=O)NC3(C)CC3)ccc2n(CC(=O)c2ccc(O)cc2)c1=O , assay system Human Full Length PARG (Homo sapiens (Human), UniProt Q86W56).
# output 8.94

# input Give IC50 for Cn1c(=O)n(Cc2ccc(C(N)=O)cc2)c(=O)c2cc(S(=O)(=O)NC3(C)CC3)ccc21 tested on Human Full Length PARG (Homo sapiens (Human), UniProt Q86W56).
# output 5.89

# input // fetch IC50; item: Cc1cc(Cn2c(=O)[nH]c3ccc(S(=O)(=O)NC4(C)CC4)cc3c2=O)on1 ; system: Human Full Length PARG (Homo sapiens (Human), UniProt Q86W56)
# output 0.649

# input State recorded IC50 with Human Full Length PARG (Homo sapiens (Human), UniProt Q86W56), entry Cn1c(=O)n(CC#N)c(=O)c2cc(S(=O)(=O)NC3(C)CC3)ccc21 , no comment.
# output 1.14

# input Output reported IC50 of the molecule C#CCn1c(=O)c2cc(S(=O)(=O)NC3(C)CC3)ccc2n(C)c1=O on Human Full Length PARG (Homo sapiens (Human), UniProt Q86W56).
# output 2.97

The origin of these recorded values is patent US10239843B2.
